Measured values drawn from the array DNA melting data of Ke et al. (doi:10.1101/2024.01.08.574731) for this set.

# measurement_description: melting temperature; fluorescence melt of hairpins on a sequencing array, two-state fit, raised by 9.35 °C to match UV melts
# condition_label: sodium 0.088 M
Please respond with reported Tm for every item in the list.
Numbers only, in °C.

biopolymer_sequence | Tm, °C
GATCACAGCGGTGATC ((((((....)))))) | 56.3
GATCGTAGCTACGATC ((((((....)))))) | 59
GCGATCGAAAGATTGCGC ((((((....)))..))) | 57.2
GAGCCCGAAAGGGAACTC ((((((....)))..))) | 47.5
GTATGCGGAAACGCATAC (((((((....))))))) | 68.2

List the reported Tm of each sequence below.
1. GATCAGCTTCTGATC ((((((...))))))
2. GATCATAAGAATGATC ((((((....))))))
3. GGATACGGAAACGTGTTC (.(.(((....))).).)
4. GTTCATGGAAACATGGAC ((.((((....)))).))
5. GTATATGAAAATATAC ((((((....))))))
6. GTCCTCGAAAGAGATGAC ((((((....)))..)))
7. GATCGGAGAACCGATC ((((((....))))))

output:
1. 49.1
2. 40.1
3. 32.2
4. 46.3
5. 39.1
6. 33.4
7. 52.6
